The reported measurements were obtained from patent US20130174288A1.

Give measured % inhibition of SDF-1-induced BRET increase for each item. Keep answers brief.
target: CXCR4 homodimer BRET pair [CXCR4/Rluc+CXCR4/YFP] on HEK293 cells (Renilla reniformis, UniProt P61073 1-352; P61073 1-352); test: cell-based or functional assay
Sequence (P61073 whole entry, chain 1 of 2): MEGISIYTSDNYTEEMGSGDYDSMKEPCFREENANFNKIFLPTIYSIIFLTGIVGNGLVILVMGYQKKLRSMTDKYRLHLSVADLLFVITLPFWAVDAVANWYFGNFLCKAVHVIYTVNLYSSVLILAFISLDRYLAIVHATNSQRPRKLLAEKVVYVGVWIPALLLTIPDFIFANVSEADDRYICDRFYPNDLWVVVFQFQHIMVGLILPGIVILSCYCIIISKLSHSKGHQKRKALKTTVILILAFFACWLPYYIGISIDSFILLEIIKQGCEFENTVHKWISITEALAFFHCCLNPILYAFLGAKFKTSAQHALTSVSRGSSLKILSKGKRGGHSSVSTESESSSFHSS
Sequence (P61073 whole entry, chain 2 of 2): as the sequence (P61073 whole entry, chain 1 of 2) above
Could you give me the number in %? Just the number is fine.

The value of % inhibition of SDF-1-induced BRET increase measured for the binder anti-CXCR4 Mab 301aE5 (murine monoclonal antibody) (antibody, V domains shown) VH: QVQLKESGPGLVAPSQSLSITCTVSGFSLTDYGVYWVRQPPGKGLEWLGMIWGDGTTDYNSALKSRLSISKDNSKSQVFLKMNTLQTDDTARYYCARGRQFGFDYWGQGTTLTVSS VL: DIVMSQSPSSLAVSAGEKVTMRCKSSQSLFNSRTRKNYLAWYQQKPGQSPKLLIFWASIRESGVPDRFTGSGSGTDFTLTISSVQAEDLAVYYCKQSYNLRTFGGGTKLEIK turned out to be 69

For reference, reported % inhibition of SDF-1-induced BRET increase for anti-CXCR4 chimeric Mab c515H7 (antibody, V domains shown) VH: EVNLVESGGGLVQPGGSLRLSCATSGFTFTDNYMSWVRQPPGKALEWLGFIRNKANGYTTDYSASVRGRFTISRDNSQSILYLQMNALRAEDSATYYCARDVGSNYFDYWGQGTTLTVSS VL: DIVMSQSPSSLAVSAGEKVTMSCKSSQSLFNSRTRKNYLAWYQQKPGQSPKLLIYWASARDSGVPARFTGSGSETYFTLTISRVQAEDLAVYYCMQSFNLRTFGGGTKLEIK stands at 96

anti-CXCR4 Mab 515H7 (murine monoclonal antibody) (antibody, V domains shown) VH: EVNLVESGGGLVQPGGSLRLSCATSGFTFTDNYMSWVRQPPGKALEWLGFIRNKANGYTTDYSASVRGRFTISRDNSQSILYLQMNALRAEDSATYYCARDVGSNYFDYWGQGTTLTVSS VL: DIVMSQSPSSLAVSAGEKVTMSCKSSQSLFNSRTRKNYLAWYQQKPGQSPKLLIYWASARDSGVPARFTGSGSETYFTLTISRVQAEDLAVYYCMQSFNLRTFGGGTKLEIK yielded % inhibition of SDF-1-induced BRET increase of 69
